- System: MCF7
- ASSAY_REMARKS: Cytotoxicity against drug-resistant […]-induced human MCF7 cells overexpressing CYP1B1 assessed as reduction in cell viability after 48 hrs by MTT assay
- Type: functional, cell-based
- CONDITION_SET: MCF7, 48 h
Entries annotated with measured IC50

O=c1[nH]cc(F)c(=O)[nH]1    > 100 µM
O=C(/C=C/c1ccccc1)c1ccc2ccccc2c1    18.2 µM

Turning now to a further compound:
Value of measured IC50 for the entry O=c1cc(-c2ccccc2)oc2c1ccc1ccccc12 : > 100 µM

----------
- SYSTEM_NAME: Cytochrome P450 1A1 (Homo sapiens)
- Sequence (P04798 whole entry): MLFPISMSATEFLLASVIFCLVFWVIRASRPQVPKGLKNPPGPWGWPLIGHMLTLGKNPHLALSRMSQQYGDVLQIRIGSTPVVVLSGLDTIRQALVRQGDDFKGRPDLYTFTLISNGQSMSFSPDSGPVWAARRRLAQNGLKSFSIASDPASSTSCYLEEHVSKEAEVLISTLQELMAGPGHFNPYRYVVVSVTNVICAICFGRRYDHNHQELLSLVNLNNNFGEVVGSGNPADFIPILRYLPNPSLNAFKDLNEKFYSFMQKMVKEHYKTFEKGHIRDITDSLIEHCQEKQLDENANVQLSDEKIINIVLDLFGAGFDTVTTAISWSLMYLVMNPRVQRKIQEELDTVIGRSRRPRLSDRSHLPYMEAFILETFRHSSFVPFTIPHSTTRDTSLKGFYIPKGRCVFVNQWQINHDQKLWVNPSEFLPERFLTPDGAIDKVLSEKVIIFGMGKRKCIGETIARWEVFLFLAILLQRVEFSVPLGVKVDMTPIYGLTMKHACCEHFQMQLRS
- ASSAY_REMARKS: Inhibition of recombinant human CYP1A1 expressed in supersomes using 7-ethoxyresorufin as substrate after 15 mins in presence of NADP+ by EROD assay
- Type: ADME
READOUT: IC50
Please answer in the form of a number followed by its unit of measurement.

Measured IC50 of O=c1cc(-c2ccccc2)oc2c1ccc1ccccc12 [ALPHA-NAPHTHOFLAVONE] : 80.3 nM
